molecular target: human IL-1RAcP on cells (human, UniProt Q9NPH3 21-570); test: cell-based or functional assay
# IC50, IL-8 release, HDFa stimulated with IL-36β per record follows
Express the reported value numerically, then name its unit.

// below: answered binders
Y024148_h_IgG1f_AEASS (antibody, V domains shown, Human IgG1f with AEASS effector-silencing residues, kappa light chain) VH: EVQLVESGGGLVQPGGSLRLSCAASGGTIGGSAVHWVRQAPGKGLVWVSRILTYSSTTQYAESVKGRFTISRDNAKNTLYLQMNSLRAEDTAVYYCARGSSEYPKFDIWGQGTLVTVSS VL: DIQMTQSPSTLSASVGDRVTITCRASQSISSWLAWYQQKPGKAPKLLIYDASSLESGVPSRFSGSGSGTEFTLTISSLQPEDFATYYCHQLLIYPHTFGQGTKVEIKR :: 0.039 nM
Y024084_h_IgG1f_AEASS (antibody, V domains shown, also called Morphosys 24084; Mor Y024084) VH: QVQLVQSGAEVKKPGASVKVSCKASGYTFTSYYMHWVRQAPGQGLEWMGIINPSGGSTSYAQKFQGRVTMTRDTSTSTVYMELSSLRSEDTAVYYCARGFVTSGIDYWGQGTLVTVSS VL: QSVLTQPPSVSAAPGQKVTISCSGSSSNIGNNYVSWYQQLPGTAPKLLIYDNNKRPSGIPDRFSGSKSGTSATLGITGLQTEDEADYYCQTWTYTGRLWIVFGGGTKLTVLG :: 0.033 nM
Y024149_h_IgG1f_AEASS (antibody, V domains shown, Human IgG1f with AEASS effector-silencing residues, kappa light chain) VH: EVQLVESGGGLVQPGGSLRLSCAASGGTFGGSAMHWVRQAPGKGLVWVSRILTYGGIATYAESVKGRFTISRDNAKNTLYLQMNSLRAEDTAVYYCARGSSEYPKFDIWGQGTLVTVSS VL: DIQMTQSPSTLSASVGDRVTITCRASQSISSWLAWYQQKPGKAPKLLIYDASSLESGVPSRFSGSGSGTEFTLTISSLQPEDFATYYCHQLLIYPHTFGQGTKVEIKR :: 0.06 nM

Q: Can you look up the measured IC50, IL-8 release, HDFa stimulated with IL-36β of h11C5 YKD (antibody, human IgG1, kappa, V domains shown, Variable domains of h11C5 YKD on the same modified IgG1 kappa constant regions (AEASS); Printed as 'h1105' in much of the text; also called h1105) VH: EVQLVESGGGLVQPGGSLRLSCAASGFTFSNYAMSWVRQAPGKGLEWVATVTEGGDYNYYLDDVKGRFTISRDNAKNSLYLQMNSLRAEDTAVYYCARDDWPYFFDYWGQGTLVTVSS VL: DIQMTQSPSSLSASVGDRVTITCRASENIYSNLAWYQQKPGKSPKLLVYGYKNLADVPSRFSGSGSGTDYTLTISSLQPEDFATYYCQHFKTTPRTFGGGTKVEIKR for me?
A: 0.28 nM
